biological target: InhA (Mycobacterium tuberculosis, UniProt P9WGR1); assay: Microcalorimetry binding of adenine dinucleotides to InhA; set-up: species or system M. tuberculosis; details: titration calorimetry, 37° C., 50 mM Tris pH 7.3, 100 μM InhA; read-out: Kd (binding constant) for binding to InhA
Sequence (P9WGR1 whole entry, looked up): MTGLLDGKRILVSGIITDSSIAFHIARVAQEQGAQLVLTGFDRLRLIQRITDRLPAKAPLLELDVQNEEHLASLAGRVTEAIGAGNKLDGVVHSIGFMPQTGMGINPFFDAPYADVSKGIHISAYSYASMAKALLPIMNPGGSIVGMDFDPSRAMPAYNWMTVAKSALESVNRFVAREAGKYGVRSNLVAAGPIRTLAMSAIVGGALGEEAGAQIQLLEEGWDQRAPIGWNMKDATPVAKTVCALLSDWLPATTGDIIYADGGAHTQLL
recordedEndpoint: pKd
Keep in mind that pKd stands for -log10 of concentration in molar terms.

Form field pKd, entry NC(=O)C1=CN([C@@H]2O[C@H](COP(=O)(O)OP(=O)(O)OC[C@H]3O[C@@H](n4cnc5c(N)ncnc54)[C@H](O)[C@@H]3O)[C@@H](O)[C@H]2O)C=CC1 [NADH] : 5.70
